src = patent US9290496B2

Reported pIC50 is given for each of the following compounds.
- measurementTarget: EGFR L858R+T790M, endogenous (NCI-H1975) (Homo sapiens, UniProt P00533, L858R/T790M)
- Construct: NCI-H1975 (EGFR L858R+T790M, endogenous)
- Sequence (P00533 25-1210 T790M/L858R): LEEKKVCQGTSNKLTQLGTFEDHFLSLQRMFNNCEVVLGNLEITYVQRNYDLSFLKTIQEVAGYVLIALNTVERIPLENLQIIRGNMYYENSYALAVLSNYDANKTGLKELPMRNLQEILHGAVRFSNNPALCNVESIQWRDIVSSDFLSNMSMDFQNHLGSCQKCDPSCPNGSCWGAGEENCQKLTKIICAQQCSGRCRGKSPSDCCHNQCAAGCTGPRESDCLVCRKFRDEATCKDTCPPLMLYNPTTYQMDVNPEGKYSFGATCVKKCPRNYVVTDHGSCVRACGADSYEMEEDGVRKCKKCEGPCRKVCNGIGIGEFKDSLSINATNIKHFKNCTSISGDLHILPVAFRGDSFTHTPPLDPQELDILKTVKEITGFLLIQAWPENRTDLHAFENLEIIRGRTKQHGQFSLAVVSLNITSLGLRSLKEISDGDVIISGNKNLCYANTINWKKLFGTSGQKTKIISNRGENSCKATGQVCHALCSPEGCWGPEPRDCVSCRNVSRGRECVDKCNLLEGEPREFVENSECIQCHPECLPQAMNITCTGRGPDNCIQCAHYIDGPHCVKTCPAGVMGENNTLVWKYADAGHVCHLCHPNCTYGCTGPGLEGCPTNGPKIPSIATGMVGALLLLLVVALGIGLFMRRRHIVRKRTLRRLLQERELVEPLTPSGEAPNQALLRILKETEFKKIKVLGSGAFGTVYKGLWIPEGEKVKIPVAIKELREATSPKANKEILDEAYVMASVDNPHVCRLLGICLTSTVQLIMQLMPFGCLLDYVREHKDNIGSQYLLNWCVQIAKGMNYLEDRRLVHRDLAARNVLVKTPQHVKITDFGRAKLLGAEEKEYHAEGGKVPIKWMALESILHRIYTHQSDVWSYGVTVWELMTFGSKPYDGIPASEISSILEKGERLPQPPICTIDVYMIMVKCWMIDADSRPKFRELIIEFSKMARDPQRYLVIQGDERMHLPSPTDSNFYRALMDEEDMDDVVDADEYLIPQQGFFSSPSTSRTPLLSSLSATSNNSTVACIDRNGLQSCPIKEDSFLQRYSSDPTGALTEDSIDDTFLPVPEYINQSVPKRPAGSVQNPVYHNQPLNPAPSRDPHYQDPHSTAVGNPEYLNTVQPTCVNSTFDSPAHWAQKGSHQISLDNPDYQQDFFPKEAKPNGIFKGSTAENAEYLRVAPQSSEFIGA
- testMethodNotes: pEGFR Y1068 ELISA assay, NCI-H1975 cells
- studyConditions: inhibition of phosphorylation of EGFR at Tyr1068; NCI-H1975 NSCLC cells; 2 hr compound incubation
pIC50: −log10 of the molar value.

compound: C=CC(=O)N1CCCC(c2nc(Nc3cnn(C)c3)c3ncn(C(C)C)c3n2)C1 (single isomer, unassigned)
pIC50: 5.98
--
compound: C=CC(=O)N1C[C@H](Nc2nc(Nc3cnn(C)c3)c3ncn(C(C)C)c3n2)[C@@H](F)C1 (relative stereo) [Example 58]
pIC50: 7.24
--
compound: C=CC(=O)NC1(C)CN(c2nc(Nc3cnn(C)c3)c3ncn(C(C)(C)C)c3n2)C1
pIC50: 7.01
--
compound: C=CC(=O)NC1(C)CN(c2nc(Nc3cnn(CCN(C)C)c3)c3ncn(C(C)C)c3n2)C1
pIC50: 7.59
--
compound: C=CC(=O)N[C@@H]1CN(c2nc(Nc3cn(C4CN(C)C4)nc3OC)c3ncn(C)c3n2)C[C@H]1F
pIC50: 7.77
--
compound: C=CC(=O)N1C[C@@H]2CN(c3nc(Nc4ccc(N5CCN(C)CC5)cc4)c4ncn(C(C)C)c4n3)C[C@@H]2C1
pIC50: 7.85

----------
- measurementTarget: EGFR wildtype, endogenous (A549) (Homo sapiens)
- Construct: A549 (EGFR wildtype, endogenous)
- Sequence (P00533 25-1210): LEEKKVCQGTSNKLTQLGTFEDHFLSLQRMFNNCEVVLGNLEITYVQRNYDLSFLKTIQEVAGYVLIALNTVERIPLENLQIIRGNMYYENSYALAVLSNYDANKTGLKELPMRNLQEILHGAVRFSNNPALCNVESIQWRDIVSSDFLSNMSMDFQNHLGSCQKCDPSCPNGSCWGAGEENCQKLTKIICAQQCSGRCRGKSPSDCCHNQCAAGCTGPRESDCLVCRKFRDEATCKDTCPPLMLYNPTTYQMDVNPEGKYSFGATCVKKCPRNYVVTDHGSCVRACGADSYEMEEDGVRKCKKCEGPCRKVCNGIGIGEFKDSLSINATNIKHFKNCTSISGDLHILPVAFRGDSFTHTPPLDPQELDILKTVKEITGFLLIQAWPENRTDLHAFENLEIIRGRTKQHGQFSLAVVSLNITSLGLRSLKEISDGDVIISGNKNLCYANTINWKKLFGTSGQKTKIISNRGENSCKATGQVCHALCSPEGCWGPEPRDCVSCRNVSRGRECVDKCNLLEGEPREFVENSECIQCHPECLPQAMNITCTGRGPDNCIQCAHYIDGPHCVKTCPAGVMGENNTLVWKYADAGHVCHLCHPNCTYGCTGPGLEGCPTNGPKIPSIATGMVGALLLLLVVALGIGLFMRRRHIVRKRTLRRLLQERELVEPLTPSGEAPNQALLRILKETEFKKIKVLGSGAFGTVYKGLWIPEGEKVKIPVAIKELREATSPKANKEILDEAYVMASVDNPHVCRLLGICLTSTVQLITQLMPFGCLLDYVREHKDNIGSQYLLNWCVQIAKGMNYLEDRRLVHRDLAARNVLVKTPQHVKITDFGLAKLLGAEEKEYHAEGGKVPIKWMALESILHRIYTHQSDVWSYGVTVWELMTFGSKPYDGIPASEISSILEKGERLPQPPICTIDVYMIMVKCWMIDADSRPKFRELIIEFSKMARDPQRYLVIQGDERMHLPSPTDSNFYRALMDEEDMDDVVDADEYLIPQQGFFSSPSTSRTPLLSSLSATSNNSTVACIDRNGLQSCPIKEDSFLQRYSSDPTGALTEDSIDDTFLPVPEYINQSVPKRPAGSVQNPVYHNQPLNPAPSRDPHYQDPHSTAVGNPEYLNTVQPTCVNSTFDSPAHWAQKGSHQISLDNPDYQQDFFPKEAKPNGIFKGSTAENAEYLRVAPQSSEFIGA
- testMethodNotes: pEGFR Y1068 ELISA assay, A549 cells
- studyConditions: inhibition of phosphorylation of EGFR at Tyr1068; A549 NSCLC cells; 2 hr compound incubation, then stimulated 10 min with EGF (40 ng/mL)
pIC50: −log10 of the molar value. Where a name gives a salt, the structure may show the parent alone.

molecule: C=CC(=O)N[C@H]1CCN(c2nc(Nc3cn(C)nc3OC)c3ncn(C(C)C)c3n2)C1
pIC50: 5.55
--
molecule: C=CC(=O)Nc1cccc(Oc2nc(Nc3cnn(C)c3)c3ncn(C(C)C)c3n2)c1 [Example 3, trifluoroacetate]
pIC50: 6.79
--
molecule: C=CC(=O)N1C[C@H]2CN(c3nc(Nc4ccc(N5CCN(C)CC5)cc4)c4ncn(C(C)C)c4n3)C[C@]2(OC)C1 (single isomer, unassigned)
pIC50: 6.90
